These entries and their values trace back to PubChem BioAssay AID292.

Reported T/C by item:
test system: B6C3F1 mice, ip Sarcoma M5076, median survival T/C; experiment: NCI In Vivo Anticancer Drug Screen. Data for tumor model Sarcoma M5076 (intraperitoneal) in B6C3F1 mice; details: endpoint: median survival time; dose: 50.0 mg/kg/injection; schedule: Q04DX004 (ip); vehicle: saline with Tween-80; higher = longer survival
Inconclusive results and toxic doses are left out.

Inquiry: Query (molecule): COc1ccc(/C=N/NC(=O)c2ccc(OCc3nc4ccccc4[nH]3)cc2)cc1 ; field requested: T/C
Reply text: 100 % of control

Inquiry: Query (molecule): CCOC(=O)CC1(C)SCCN1C(=O)OCC (stereo not given) ; field requested: T/C
Reply text: 114 % of control

Inquiry: Query (molecule): COC(=O)Nc1ccc(Cc2ccc(NC(=O)OC)cc2)cc1 ; field requested: T/C
Reply text: 95 % of control

Inquiry: Query (molecule): Cc1[nH]c(=O)[nH]c(=O)c1C=O ; field requested: T/C
Reply text: 100 % of control

Inquiry: Query (molecule): CCC1OCC(C(Cl)CCl)O1 (stereo not given) ; field requested: T/C
Reply text: 100 % of control

Inquiry: Query (molecule): COC(=O)c1cc(=O)c2c(ccc3oc(=O)ccc32)[nH]1 ; field requested: T/C
Reply text: 92 % of control

Inquiry: Query (molecule): OC1(c2ccccc2)c2ccccc2NC2=NCCN21 (stereo not given) ; field requested: T/C
Reply text: 96 % of control

Inquiry: Query (molecule): O=C(O)c1nn(-c2ccccc2-c2n[nH]c(=O)[nH]c2=O)c(=O)[nH]c1=O ; field requested: T/C
Reply text: 101 % of control

Inquiry: Query (molecule): COCCCNC1=C(C#N)C(=O)NC2(CCCC2)S1 ; field requested: T/C
Reply text: 97 % of control

Inquiry: Query (molecule): COC(=O)c1c(C(=O)OC)c2c(C)nn3ccc1n23 ; field requested: T/C
Reply text: 96 % of control

Inquiry: Query (molecule): COc1cc(/C=C/[N+](=O)[O-])cc(Br)c1OC ; field requested: T/C
Reply text: 94 % of control

---

system: B6C3F1 mice, ip Sarcoma M5076, median survival T/C; assay: NCI In Vivo Anticancer Drug Screen. Data for tumor model Sarcoma M5076 (intraperitoneal) in B6C3F1 mice; conditions: endpoint: median survival time; dose: 100.0 mg/kg/injection; schedule: Q04DX004 (ip); vehicle: saline with Tween-80; higher = longer survival
Toxic doses and inconclusive results are not listed.
Recorded Metric: T/C

COc1cc(C(C)c2cc3c(cc2OCCO)OCO3)cc(OC)c1OC (configuration not stated) ... 108 % of control

Now look at this one.
Inquiry: # query: T/C | item N#CCS(=O)(=O)c1cccc[n+]1[O-] | system: B6C3F1 mice, ip Sarcoma M5076, median survival T/C
Reply text: 99 % of control

---

tested on: B6C3F1 mice, ip Sarcoma M5076, median survival T/C; experiment: NCI In Vivo Anticancer Drug Screen. Data for tumor model Sarcoma M5076 (intraperitoneal) in B6C3F1 mice; conditions: endpoint: median survival time; dose: 2.0 mg/kg/injection; schedule: Q04DX004 (ip); vehicle: saline with Tween-80
Toxic doses and inconclusive results are not listed. The calls were made as follows: active = survival T/C of 150% or more; inactive = T/C below 125% in these data.
Mark one answer only. Choices: t (active), f (inactive)

N[C@@H](Cc1ccc(N(CCCl)CCCl)cc1)C(=O)O ... t
O=C(O)CCCc1ccc(N(CCCl)CCCl)cc1 ... f
CC[C@@]1(O)C(=O)OCc2c1cc1n(c2=O)Cc2cc3c(N)cccc3nc2-1 ... t
COc1cc([C@@H]2c3cc4c(cc3[C@H](O)[C@H]3COC(=O)[C@H]23)OCO4)cc(OC)c1OC ... f

As a next step, examine the molecule that follows.
Inquiry: For this molecule, state the assay outcome: COC(C(=O)C(O)C(C)O)C1CC2C=C3C=C(OC4CC(OC5CC(O)C(OC)C(C)O5)C(OC(C)=O)C(C)O4)C(C)C(=O)C3=C(O)C2=C(O)C1OC1CC(OC2CC(OC3CC(C)(O)C(O)C(C)O3)C(O)C(C)O2)C(O)C(C)O1 (stereo not given)
Reply text: f
